Source: ChEMBL document CHEMBL2069274

# assayExplanation: Selectivity index, ratio of IC50 for rat L6 cells to IC50 for Leishmania donovani MHOM-ET67/L82 amastigotes
Would you kindly list selectivity ratio for each of these compounds?
// response body must contain only the number

[in] Find the recorded selectivity ratio belonging to `Cc1ccc2nc(NC(=O)Cn3cnc([N+](=O)[O-])n3)sc2c1` and report it.
[out] 28.7

[in] Find the recorded selectivity ratio belonging to `O=[N+]([O-])c1ncn(CCCCNS(=O)(=O)c2ccc(OC(F)(F)F)cc2)n1` and report it.
[out] 14.4

[in] Find the recorded selectivity ratio belonging to `O=C(Cn1cnc([N+](=O)[O-])n1)Nc1nc2cc(Cl)ccc2o1` and report it.
[out] 5.6

[in] Find the recorded selectivity ratio belonging to `O=[N+]([O-])c1ncn(CCCNS(=O)(=O)c2ccc(Cl)s2)n1` and report it.
[out] 7.4

[in] Find the recorded selectivity ratio belonging to `O=C(Cn1cnc([N+](=O)[O-])n1)Nc1nc2ccc(Cl)cc2s1` and report it.
[out] 28
